microsomal CLint by entry:
- assay-name: in vitro
- experimental-context: human, microsomes
State the value, then name its unit.

The examples below pair each entry with its known result.
{"columns": ["test-smiles", "readout-value"],
 "data": [
  ["CCc1c(F)ccc2cc(O)cc(-c3ncc4c(N5CCC[C@@](C)(O)C5)nc(OCC5(CN6CCN(c7cnc(-c8cn([C@H](C(=O)N9C[C@H](O)C[C@H]9C(=O)N[C@@H](C)c9ccc(-c%10scnc%10C)cc9)C(C)C)nn8)cn7)CC6)CC5)nc4c3F)c12", "28.4 µL/min/mg"],
  ["CCc1c(F)ccc2cc(O)cc(-c3ncc4c(N5CCC[C@@](C)(O)C5)nc(OCC5(CN6CCC(F)(COc7cc([C@H](C(=O)N8C[C@H](O)C[C@H]8C(=O)N[C@@H](C)c8ccc(-c9scnc9C)cc8)C(C)C)on7)CC6)CC5)nc4c3F)c12", "47 µL/min/mg"],
  ["CCc1c(F)ccc2cc(O)cc(-c3ncc4c(N5CCC[C@@](C)(O)C5)nc(OCC5(CN6CCN(c7ccc(-c8cn([C@H](C(=O)N9C[C@H](O)C[C@H]9C(=O)N[C@@H](C)c9ccc(-c%10scnc%10C)cc9)C(C)C)nn8)cn7)CC6)CC5)nc4c3F)c12", "11.1 µL/min/mg"]
]}

Now consider the entry below.
Input: Give the measured microsomal CLint of `CCc1c(F)ccc2cc(O)cc(-c3ncc4c(N5CCC[C@@](C)(O)C5)nc(OCC5(CN6CCC7(CC6)CN(c6ccc(-c8cn([C@H](C(=O)N9C[C@H](O)C[C@H]9C(=O)N[C@@H](C)c9ccc(-c%10scnc%10C)cc9)C(C)C)nn8)cc6)C7)CC5)nc4c3F)c12` .
Output: 1 µL/min/mg
